Exercise: for every item that follows, state its recorded IC50.
# experimental-system: Human TRPC6 (Homo sapiens, UniProt Q9Y210)
# Construct: expressed in transfected cells
# Sequence (Q9Y210 whole entry): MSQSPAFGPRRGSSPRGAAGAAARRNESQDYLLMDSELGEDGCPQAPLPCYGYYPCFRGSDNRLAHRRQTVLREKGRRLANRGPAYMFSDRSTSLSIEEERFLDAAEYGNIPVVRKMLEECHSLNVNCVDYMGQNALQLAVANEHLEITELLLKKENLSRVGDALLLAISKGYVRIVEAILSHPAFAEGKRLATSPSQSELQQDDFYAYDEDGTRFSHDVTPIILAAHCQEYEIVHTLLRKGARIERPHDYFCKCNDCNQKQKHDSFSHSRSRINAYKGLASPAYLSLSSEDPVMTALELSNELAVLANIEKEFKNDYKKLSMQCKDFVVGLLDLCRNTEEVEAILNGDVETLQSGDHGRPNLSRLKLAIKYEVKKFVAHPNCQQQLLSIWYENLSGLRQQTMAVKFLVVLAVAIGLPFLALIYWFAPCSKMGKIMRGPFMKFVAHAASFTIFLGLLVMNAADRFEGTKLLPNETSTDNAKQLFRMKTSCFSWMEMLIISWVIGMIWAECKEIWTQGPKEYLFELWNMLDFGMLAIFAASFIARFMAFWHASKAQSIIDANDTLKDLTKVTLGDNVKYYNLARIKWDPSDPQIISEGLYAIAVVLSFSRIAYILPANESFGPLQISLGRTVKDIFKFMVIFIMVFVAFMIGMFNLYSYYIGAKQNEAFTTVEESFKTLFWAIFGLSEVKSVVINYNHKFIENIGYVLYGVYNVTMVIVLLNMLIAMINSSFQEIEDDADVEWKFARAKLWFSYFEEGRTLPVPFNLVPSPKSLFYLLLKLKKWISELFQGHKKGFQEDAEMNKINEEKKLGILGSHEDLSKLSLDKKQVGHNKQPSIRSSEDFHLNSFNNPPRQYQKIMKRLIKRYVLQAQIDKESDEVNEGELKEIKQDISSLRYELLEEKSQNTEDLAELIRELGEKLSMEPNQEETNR
# measurement-protocol: Evaluation of TRPC6 channel inhibitory activity (1), FLIPR Calcium 5 Assay Kit, OAG stimulation (Compound Nos. 1-1293)
# Assay type: cell-based
# experimental-setup: Human TRPC6 stably-expressing cells, OAG 30 μM, FLIPR Calcium 5 Assay Kit; read-out: Inhibitory activity (pIC50 class) (converted)

IC50 of Cc1nc(Oc2cc(C#N)ccc2-c2ccc(CCN)cc2)cc(N2CC(F)(F)C(F)(F)C2)n1 on Human TRPC6 (Homo sapiens, UniProt Q9Y210)?
< 10 nM

Lab note: need IC50 for Cc1nc(N2CCOCC2)sc1C(=O)c1cc(C#N)ccc1-c1ncc(CN)cn1 on Human TRPC6 (Homo sapiens, UniProt Q9Y210), anyone have it?
10 to 1000 nM

Fill in the recorded IC50 for this compound, with Human TRPC6 (Homo sapiens, UniProt Q9Y210) as test system: N#Cc1ccc(-c2ncc(CN)cn2)c(Sc2nnc(N3CCOCC3)s2)c1
> 1000 nM

For the record Cn1nc(C2CC2)cc1Oc1cc(C#N)ccc1-c1ccc(CN)n2cnnc12 , what value of IC50 is listed for Human TRPC6 (Homo sapiens, UniProt Q9Y210)?
10 to 1000 nM

Missing value: IC50, Human TRPC6 (Homo sapiens, UniProt Q9Y210), entry Cc1nc(Oc2cc(C#N)ccc2-c2ccc(C(CN)c3ccccc3)cc2)cc(N2CCOCC2)n1 (centres unmarked) . Fill in?
10 to 1000 nM

Find IC50 (Human TRPC6 (Homo sapiens, UniProt Q9Y210)) for the entry Cc1cc(Oc2cc(C#N)ccc2-c2ccc(C(N)C#N)cn2)cc(N2CCOCC2)n1 (centres unmarked)
10 to 1000 nM

Checklist item: IC50 tested on Human TRPC6 (Homo sapiens, UniProt Q9Y210), entry Cc1nc(OCC(F)F)cc(Oc2cc(C#N)ccc2-c2ncc(CCN)cn2)n1 , value?
10 to 1000 nM

Observed IC50 on Human TRPC6 (Homo sapiens, UniProt Q9Y210) for Cc1nc(Oc2cc(C#N)ccc2-n2cc([C@@H](O)CNC3COC3)cn2)cc(-c2ccccc2)n1 , please.
10 to 1000 nM
